Data credit: patent US10519114B2

// rat δ (C6-DOR) opioid receptor (Rattus norvegicus) log10 Ki records
Form field - Quantity: Ki; Unit: nM; Scale: log10

Item under review: Cc1cc(O)cc(C)c1C[C@H](N)C(=O)N[C@@H]1CCNc2ccc(C(c3ccccc3)c3ccccc3)cc21 . Reported log10 Ki?
0.36

Item under review: Cc1cc(O)cc(C)c1C[C@H](N)C(=O)NC1CCNc2ccc(Oc3ccccc3)cc21 (stereo partly drawn) . Reported log10 Ki?
1.14

Item under review: CCCc1cc(Cc2ccccc2)cc2c1NCC[C@H]2NC(=O)[C@@H](N)Cc1c(C)cc(O)cc1C . Reported log10 Ki?
0.77

Item under review: Cc1cc(O)cc(C)c1C[C@H](N)C(=O)N[C@@H]1CCSc2ccc(Cc3ccccc3)cc21 . Reported log10 Ki?
0.68

Item under review: CC(=O)N1CC[C@@H](NC(=O)[C@@H](N)Cc2c(C)cc(O)cc2C)c2cc(Cc3ccccc3)cc(Cc3ccccc3)c21 . Reported log10 Ki?
-0.46

Item under review: Cc1cc(O)cc(C)c1C[C@H](N)C(=O)N(C)[C@@H]1CCNc2ccc(Cc3ccccc3)cc21 . Reported log10 Ki?
1.20

Item under review: Cc1cc(O)cc(C)c1C[C@H](N)C(=O)N[C@H]1CCNc2ccc(Oc3ccccc3)cc21 . Reported log10 Ki?
2.44

Item under review: Cc1cc(O)cc(C)c1C[C@H](N)C(=O)N[C@@H]1CCC(C)(C)c2ccc(Cc3ccccc3)cc21 . Reported log10 Ki?
0.81

Item under review: COc1ccccc1Oc1ccc2c(c1)[C@H](NC(=O)[C@@H](N)Cc1c(C)cc(O)cc1C)CCN2 . Reported log10 Ki?
1.00

Item under review: Cc1cc(O)cc(C)c1C[C@H](N)C(=O)N[C@@H]1CCNc2ccc(Oc3cccc(Cl)c3)cc21 . Reported log10 Ki?
0.41

Item under review: Cc1cc(O)cc(C)c1C[C@H](N)C(=O)N[C@@H]1C[C@@H](C)Nc2ccc(Cc3ccccc3)cc21 . Reported log10 Ki?
1.94

Item under review: COc1cc(Cc2ccccc2)cc2c1N(C(C)=O)CC[C@H]2NC(=O)[C@@H](N)Cc1c(C)cc(O)cc1C . Reported log10 Ki?
0.33

Item under review: Cc1cc(O)cc(C)c1C[C@H](N)C(=O)N[C@@H]1CCNc2ccc(-c3ccccc3)cc21 . Reported log10 Ki?
1.13

Item under review: Cc1cc(O)cc(C)c1C[C@H](N)C(=O)N[C@@H]1CCCc2ccc(Oc3ccccc3)cc21 . Reported log10 Ki?
1.11

Item under review: Cc1cc(O)cc(C)c1C[C@H](N)C(=O)N[C@@H]1CCN(C)c2ccc(Cc3ccccc3)cc21 . Reported log10 Ki?
0.86

----------
Tested Target: rat δ (C6-DOR) opioid receptor (Rattus norvegicus, UniProt P33533)
Construct: expressed in transfected cells
Sequence (P33533 whole entry): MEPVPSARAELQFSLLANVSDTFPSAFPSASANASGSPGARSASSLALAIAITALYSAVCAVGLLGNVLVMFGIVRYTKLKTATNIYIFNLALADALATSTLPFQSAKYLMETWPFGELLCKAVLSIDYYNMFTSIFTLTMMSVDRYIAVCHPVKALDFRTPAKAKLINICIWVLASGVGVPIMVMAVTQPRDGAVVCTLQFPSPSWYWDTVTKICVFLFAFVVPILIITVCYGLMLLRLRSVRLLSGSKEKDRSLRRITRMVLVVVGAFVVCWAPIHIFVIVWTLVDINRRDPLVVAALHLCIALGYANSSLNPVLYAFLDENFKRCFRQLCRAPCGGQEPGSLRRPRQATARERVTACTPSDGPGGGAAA
Test Method Notes: Radioligand binding assay, [3H]diprenorphine displacement, DOR
Cond: displacement of 0.2 nM [3H]diprenorphine, C6-DOR membranes; mean ± standard error
Experimental: In Vitro Pharmacology-Cell Lines and Membrane Preparations. All tissue culture reagents were purchased from Gibco Life Sciences (Grand Island, N.Y., U.S.). […] Protein concentration was determined via Bradford assay using bovine serum albumin as the standard. Radioligand Binding Assays. […] The radioactivity retained on dried filters was determined by liquid scintillation counting after saturation with EcoLume liquid scintillation cocktail in a Wallac 1450 MicroBeta (Perkin-Elmer, Waltham, Mass., U.S.). […]
Readout: Ki (nM)
Express the result in nM but write the number alone.

Item under review: CC(=O)N1CC[C@H](NC(=O)[C@@H](N)Cc2c(C)cc(O)cc2C)c2cc(Oc3ccccc3)ccc21 . Reported Ki?
92.9

Item under review: Cc1cc(O)cc(C)c1C[C@H](N)C(=O)N[C@@H]1CCNc2c(CN3CCN(C(=O)[C@@H](N)Cc4c(C)cc(O)cc4C)CC3)cc(Cc3ccccc3)cc21 . Reported Ki?
2.56

Item under review: Cc1cc(O)cc(C)c1C[C@H](N)C(=O)N[C@@H]1CCNc2c1cc(Cc1ccccc1)cc2C(F)(F)F . Reported Ki?
3.7
